Target: CnAcs1 (acetyl CoA synthetase) (Cryptococcus neoformans, UniProt J9VFT1)
Construct: gene CNAG_00797; His-tagged recombinant CnAcs1 expressed in E. coli
Sequence (J9VFT1 1-680): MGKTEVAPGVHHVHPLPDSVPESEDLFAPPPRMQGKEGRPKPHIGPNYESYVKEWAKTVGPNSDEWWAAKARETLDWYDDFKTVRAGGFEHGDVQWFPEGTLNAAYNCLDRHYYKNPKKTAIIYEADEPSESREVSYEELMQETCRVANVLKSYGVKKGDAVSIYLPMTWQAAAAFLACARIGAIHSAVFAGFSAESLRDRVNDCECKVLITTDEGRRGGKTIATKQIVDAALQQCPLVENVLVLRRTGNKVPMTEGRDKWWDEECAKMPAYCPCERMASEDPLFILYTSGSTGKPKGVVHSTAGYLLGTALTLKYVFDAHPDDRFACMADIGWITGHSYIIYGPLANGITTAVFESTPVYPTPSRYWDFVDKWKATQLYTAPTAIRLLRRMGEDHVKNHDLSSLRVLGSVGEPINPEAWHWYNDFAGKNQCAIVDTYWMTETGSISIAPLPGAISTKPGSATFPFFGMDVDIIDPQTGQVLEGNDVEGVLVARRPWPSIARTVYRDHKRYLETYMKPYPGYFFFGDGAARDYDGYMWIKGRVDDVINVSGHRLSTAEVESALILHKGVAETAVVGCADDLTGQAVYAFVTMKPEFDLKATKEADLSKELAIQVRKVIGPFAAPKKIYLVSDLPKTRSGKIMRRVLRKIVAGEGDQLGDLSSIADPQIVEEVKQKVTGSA
Experiment: coupled pyrophosphate-release enzyme assay
Type: biochemical
propertyName: IC50 (nM)

1. O=C(NNC(=O)c1csnn1)c1ccc(Cl)cc1: 2800

This collection of values is drawn from paper PMC11722533.
